- measured target: FXa (Homo sapiens)
- Construct: 8 μg/mL FXa solution; purchased
- experiment: AT-dependent Xa inhibitory activity assay
- Format: biochemical
- conditions: in presence of AT; read-out: Drug concentration required to inhibit 50% of coagulation factor activity (IC50, ng/mL) Xa (AT)
property measured: IC50

Task item: Could you share which IC50 value was measured for CC(=O)N[C@H]1[C@H](O[C@H]2[C@H](O[C@@H]3O[C@@H](C)[C@@H](OS(=O)(=O)O)[C@@H](OS(=O)(=O)O)[C@@H]3O)[C@@H](O)C(O)O[C@@H]2C(=O)O)O[C@H](COS(=O)(=O)O)[C@H](OS(=O)(=O)O)[C@@H]1O[C@@H]1OC(C(=O)O)=C[C@H](O[C@@H]2O[C@@H](C)[C@@H](OS(=O)(=O)O)[C@@H](OS(=O)(=O)O)[C@@H]2O)[C@H]1O (some centres unmarked) [Compound B6] ?
Reply: > 3.76 µM

Task item: Fill in the blank: the reported IC50 of CC(=O)NC1C(OC2C(C(=O)O)OC(OC3C(NC(C)=O)C(OC4C(C(=O)O)OC(OC5C(NC(C)=O)C(OC(C(O)C(=O)O)C(OC6OC(C)C(OS(=O)(=O)O)C(OS(=O)(=O)O)C6O)C(O)CO)OC(COS(=O)(=O)O)C5OS(=O)(=O)O)C(O)C4OC4OC(C)C(OS(=O)(=O)O)C(OS(=O)(=O)O)C4O)OC(COS(=O)(=O)O)C3OS(=O)(=O)O)C(O)C2OC2OC(C)C(OS(=O)(=O)O)C(OS(=O)(=O)O)C2O)OC(COS(=O)(=O)O)C(OS(=O)(=O)O)C1OC1OC(C(=O)O)=CC(OC2OC(C)C(OS(=O)(=O)O)C(OS(=O)(=O)O)C2O)C1O (centres unmarked) [Compound B3] is ____.
Reply: > 1.65 µM

* * *

- measured target: FIIa (Homo sapiens)
- Construct: antithrombin (i.e., active coagulation factor IIa); purchased
- Sequence (P01008 33-464): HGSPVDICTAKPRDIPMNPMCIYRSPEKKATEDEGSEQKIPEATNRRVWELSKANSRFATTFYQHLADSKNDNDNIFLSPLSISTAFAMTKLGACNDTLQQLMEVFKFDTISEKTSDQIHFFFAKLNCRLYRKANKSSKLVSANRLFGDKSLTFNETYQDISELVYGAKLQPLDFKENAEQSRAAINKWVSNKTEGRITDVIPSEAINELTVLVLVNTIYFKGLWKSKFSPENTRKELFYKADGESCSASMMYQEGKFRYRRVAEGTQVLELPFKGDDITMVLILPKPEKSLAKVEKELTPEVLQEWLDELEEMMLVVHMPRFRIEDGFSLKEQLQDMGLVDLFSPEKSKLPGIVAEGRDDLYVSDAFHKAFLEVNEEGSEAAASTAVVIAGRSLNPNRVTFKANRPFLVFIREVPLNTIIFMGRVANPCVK
- experiment: AT-dependent IIa inhibitory activity assay
- Assay type: biochemical
- conditions: in presence of AT; read-out: Drug concentration required to inhibit 50% of coagulation factor activity (IC50, ng/mL) Ha (AT)
pIC50: −log10 of the molar value.
property measured: pIC50

Task item: Param item = CC(=O)NC(CO)C(OC1OC(C(=O)O)C(OC2OC(COS(=O)(=O)O)C(OS(=O)(=O)O)C(OC3OC(C(=O)O)C(OC4OC(COS(=O)(=O)O)C(OS(=O)(=O)O)C(OC5OC(C(=O)O)=CC(OC6OC(C)C(OS(=O)(=O)O)C(O)C6OS(=O)(=O)O)C5O)C4NC(C)=O)C(OC4OC(C)C(OS(=O)(=O)O)C(O)C4OS(=O)(=O)O)C3O)C2NC(C)=O)C(OC2OC(C)C(OS(=O)(=O)O)C(O)C2OS(=O)(=O)O)C1O)C(OS(=O)(=O)O)C(O)COS(=O)(=O)O (stereo not shown) [Compound A2] ; retrieve measured pIC50.
Reply: < 5.71

* * *

- measured target: intrinsic factor Xase (Homo sapiens)
- Construct: 60 nM FIXa; purchased
- Sequence (P00740 47-191 limits assumed): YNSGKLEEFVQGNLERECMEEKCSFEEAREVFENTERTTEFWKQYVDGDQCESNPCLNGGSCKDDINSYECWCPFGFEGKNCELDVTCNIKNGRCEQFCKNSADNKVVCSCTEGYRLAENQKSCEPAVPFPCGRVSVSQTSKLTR
- Sequence (P00740 227-461 limits assumed): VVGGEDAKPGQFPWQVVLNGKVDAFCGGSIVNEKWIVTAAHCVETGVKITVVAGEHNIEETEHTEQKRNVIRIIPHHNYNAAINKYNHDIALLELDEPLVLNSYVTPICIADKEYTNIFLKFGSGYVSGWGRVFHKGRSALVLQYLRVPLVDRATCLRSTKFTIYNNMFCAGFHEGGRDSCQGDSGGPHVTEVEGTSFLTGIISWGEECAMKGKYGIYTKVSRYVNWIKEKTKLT
- experiment: Xase inhibitory activity assay
- Type: biochemical
- conditions: read-out: Drug concentration required to inhibit 50% of coagulation factor activity (IC50, ng/mL) Xase (converted)
property measured: IC50 (nM)
Give a bare numeral; the unit nM is implied.

Task item: Please report the recorded IC50 for CC1OC(OC2C=C(C(=O)O)OC(OC3C(NS(=O)(=O)O)C(OC4C(C(=O)O)OC(OC5C(NS(=O)(=O)O)C(OC6C(C(=O)O)OC(OC(C(CO)NS(=O)(=O)O)C(OS(=O)(=O)O)C(O)COS(=O)(=O)O)C(O)C6OC6OC(C)C(OS(=O)(=O)O)C(O)C6OS(=O)(=O)O)OC(COS(=O)(=O)O)C5OS(=O)(=O)O)C(O)C4OC4OC(C)C(OS(=O)(=O)O)C(O)C4OS(=O)(=O)O)OC(COS(=O)(=O)O)C3OS(=O)(=O)O)C2O)C(OS(=O)(=O)O)C(O)C1OS(=O)(=O)O (centres unmarked) [Compound A7] .
Reply: 22.2

Task item: # input compound: CC(=O)NC1C(OC2C(C(=O)O)OC(OC3C(NC(C)=O)C(OC4C(C(=O)O)OC(OC5C(NC(C)=O)C(OC6C(C(=O)O)OC(O)C(O)C6OC6OC(C)C(OS(=O)(=O)O)C(OS(=O)(=O)O)C6O)OC(COS(=O)(=O)O)C5OS(=O)(=O)O)C(O)C4OC4OC(C)C(OS(=O)(=O)O)C(OS(=O)(=O)O)C4O)OC(COS(=O)(=O)O)C3OS(=O)(=O)O)C(O)C2OC2OC(C)C(OS(=O)(=O)O)C(OS(=O)(=O)O)C2O)OC(COS(=O)(=O)O)C(OS(=O)(=O)O)C1OC1OC(C(=O)O)=CC(OC2OC(C)C(OS(=O)(=O)O)C(OS(=O)(=O)O)C2O)C1O (centres unmarked) [Compound B8] ; wanted: its IC50
Reply: 9.8

Source of measurements: patent US12280072B2
